- Study Target: Glycogen synthase kinase-3 (Homo sapiens, UniProt P49840+P49841)
- Run Description: Inhibitory concentration against the Glycogen synthase kinase-3
- Assay type: protein assay
Outcome Measure: log10 IC50 (log10 of the value in nM)
Recall that a logarithmic scale is used here: each number is log10 of IC50 in nM.

>  <Compound>
CN(C)C(=O)N1CCn2cc(C3=C(c4cnc5ccccn45)C(=O)NC3=O)c3cccc(c32)C1

>  <log10 IC50>
0.20

$$$$

Q. // returns reported log10 IC50 for input `O=C1NC(=O)C(c2cncc3ccoc23)=C1c1cn2c3c(cccc13)CN(C(=O)N1CCCCC1)CC2`
A. 0.32

Q. Repeat with `CC(=O)N1CCn2cc(C3=C(c4cccc5ccsc45)C(=O)NC3=O)c3cccc(c32)C1`
A. 1.28

Q. Repeat with `O=C1NC(=O)C(c2cnc3cnccn23)=C1c1cn2c3c(cccc13)CN(C(=O)N1CCOCC1)CC2`
A. 0.51

Q. Repeat with `O=C1NC(=O)C(c2cnc3ncccn23)=C1c1cn2c3c(cccc13)CNCC2`
A. 2.08

Q. Repeat with `O=C1NC(=O)C(c2cnc3ccncn23)=C1c1cn2c3c(cccc13)CNCC2`
A. 2.52

Q. Repeat with `CC(=O)N1CCn2cc(C3=C(c4cccc5c4OCC5)C(=O)NC3=O)c3cccc(c32)C1`
A. 0.04

Q. Repeat with `O=C1NC(=O)C(c2cn3c4c(cccc24)CNCC3)=C1c1ccc2c(c1)COC2`
A. 1.92

Q. Repeat with `CC(=O)N1CCn2cc(C3=C(c4cncc5ccoc45)C(=O)NC3=O)c3cccc(c32)C1`
A. -0.05

Q. Repeat with `O=C1NC(=O)C(c2cnc3ccccn23)=C1c1cn2c3c(cccc13)CNCC2`
A. 1.08

Q. Repeat with `CN(C)C(=O)N1CCn2cc(C3=C(c4cncc5ccoc45)C(=O)NC3=O)c3cccc(c32)C1`
A. 0.08

Q. Repeat with `CC(C)C(=O)N1CCn2cc(C3=C(c4cnc5ccccn45)C(=O)NC3=O)c3cccc(c32)C1`
A. 0.26

----------
- Species: Homo sapiens
- Run Description: IC50 ratio between CDK4 and GSK-3
Outcome Measure: Selectivity
Keep the answer to the number alone.

Use these answered entries as a reference point.
>  <Structure String>
O=C1NC(=O)C(c2cnc3cnccn23)=C1c1cn2c3c(cccc13)CNCC2

>  <Selectivity>
19

$$$$
>  <Structure String>
O=C1NC(=O)C(c2cccc3ccoc23)=C1c1cn2c3c(cccc13)CNCC2

>  <Selectivity>
5

$$$$
>  <Structure String>
O=C1NC(=O)C(c2cncc3ccoc23)=C1c1cn2c3c(cccc13)CNCC2

>  <Selectivity>
6

$$$$
>  <Structure String>
O=C1NC(=O)C(c2cnc3cnccn23)=C1c1cn2c3c(cccc13)CN(C(=O)N1CCOCC1)CC2

>  <Selectivity>
4550

$$$$
>  <Structure String>
O=C1NC(=O)C(c2ccn3ncccc23)=C1c1cn2c3c(cccc13)CN(C(=O)N1CCOCC1)CC2

>  <Selectivity>
1900

$$$$

Q. // returns reported Selectivity for input `CC(=O)N1CCn2cc(C3=C(c4cccc5c4OCO5)C(=O)NC3=O)c3cccc(c32)C1`
A. 50

Q. Repeat with `O=C1NC(=O)C(c2cnc3cnccn23)=C1c1cn2c3c(cccc13)CN(C(=O)N1CCCCC1)CC2`
A. 8920

Q. Repeat with `O=C1NC(=O)C(c2cn3c4c(cccc24)CNCC3)=C1c1cccc2c1ccn2CCCO`
A. 1

Q. Repeat with `O=C1NC(=O)C(c2cnc3ncccn23)=C1c1cn2c3c(cccc13)CN(C(=O)N1CCOCC1)CC2`
A. 8580

----------
- Species: Homo sapiens
- Run Description: IC50 ratio between PKCbeta II and GSK-3
Classification scheme (Selectivity): low end (below 30), middle (30 to below 200), high end (200 or more)

>  <Structure String>
CC(=O)N1CCn2cc(C3=C(c4cccc5ccsc45)C(=O)NC3=O)c3cccc(c32)C1

>  <Class Label>
low end

$$$$
>  <Structure String>
O=C1NC(=O)C(c2ccn3ncccc23)=C1c1cn2c3c(cccc13)CNCC2

>  <Class Label>
low end

$$$$
>  <Structure String>
CC(=O)N1CCn2cc(C3=C(c4cnc5ccccn45)C(=O)NC3=O)c3cccc(c32)C1

>  <Class Label>
high end

$$$$
>  <Structure String>
CC(=O)N1CCn2cc(C3=C(c4cncc5ccoc45)C(=O)NC3=O)c3cccc(c32)C1

>  <Class Label>
high end

$$$$
>  <Structure String>
O=C1NC(=O)C(c2cncc3ccoc23)=C1c1cn2c3c(cccc13)CN(C(=O)N1CCCCC1)CC2

>  <Class Label>
middle

$$$$

Q. Bin? `CC(=O)N1CCn2cc(C3=C(c4cccc5c4OCO5)C(=O)NC3=O)c3cccc(c32)C1`
A. high end

Q. Repeat with `O=C1NC(=O)C(c2cnc3ccccn23)=C1c1cn2c3c(cccc13)CNCC2`
A. low end

Q. Repeat with `CN(C)C(=O)N1CCn2cc(C3=C(c4cccc5c4OCO5)C(=O)NC3=O)c3cccc(c32)C1`
A. middle

----------
Entries and their IC50 values follow.
- Study Target: Glycogen synthase kinase-3 (Homo sapiens, UniProt P49840+P49841)
- Run Description: Inhibitory concentration against the Glycogen synthase kinase-3
- Type: protein assay
Answer format: number, then unit.

Use these answered entries as a reference point.
>  <Structure String>
O=C1NC(=O)C(c2cccc3ccoc23)=C1c1cn2c3c(cccc13)CNCC2

>  <Study Target>
Glycogen synthase kinase-3 (Homo sapiens, UniProt P49840+P49841)

>  <Outcome Measure>
IC50

>  <Result>
3.4 nM

$$$$
>  <Structure String>
CC(=O)N1CCn2cc(C3=C(c4cnc5ccccn45)C(=O)NC3=O)c3cccc(c32)C1

>  <Study Target>
Glycogen synthase kinase-3 (Homo sapiens, UniProt P49840+P49841)

>  <Outcome Measure>
IC50

>  <Result>
1.9 nM

$$$$
>  <Structure String>
O=C1NC(=O)C(c2cnc3ccccn23)=C1c1cn2c3c(cccc13)CN(C(=O)N1CCOCC1)CC2

>  <Study Target>
Glycogen synthase kinase-3 (Homo sapiens, UniProt P49840+P49841)

>  <Outcome Measure>
IC50

>  <Result>
1.3 nM

$$$$
>  <Structure String>
O=C1NC(=O)C(c2cn3c4c(cccc24)CNCC3)=C1c1cccc2c1ccn2CCCO

>  <Study Target>
Glycogen synthase kinase-3 (Homo sapiens, UniProt P49840+P49841)

>  <Outcome Measure>
IC50

>  <Result>
27 nM

$$$$
>  <Structure String>
CN(C)C(=O)N1CCn2cc(C3=C(c4ccn5ncccc45)C(=O)NC3=O)c3cccc(c32)C1

>  <Study Target>
Glycogen synthase kinase-3 (Homo sapiens, UniProt P49840+P49841)

>  <Outcome Measure>
IC50

>  <Result>
4.7 nM

$$$$

Q. // returns reported IC50 for input `O=C1NC(=O)C(c2cn3c4c(cccc24)CNCC3)=C1c1cccc2c1OCO2`
A. 13 nM

Q. Repeat with `O=C1NC(=O)C(c2cccc3ccsc23)=C1c1cn2c3c(cccc13)CNCC2`
A. 45 nM

Q. Repeat with `CC(=O)N1CCn2cc(C3=C(c4cccc5ccoc45)C(=O)NC3=O)c3cccc(c32)C1`
A. 1.5 nM

Q. Repeat with `O=C1NC(=O)C(c2cnc3cccnn23)=C1c1cn2c3c(cccc13)CNCC2`
A. 4.8 nM

----------
Entries and their Selectivity values follow.
- Organism: Homo sapiens
- Run Description: IC50 ratio between CDK4 and GSK-3
Keep the answer to the number alone.

Use these answered entries as a reference point.
>  <Compound>
O=C1NC(=O)C(c2cncc3ccoc23)=C1c1cn2c3c(cccc13)CN(C(=O)N1CCOCC1)CC2 [BISARYLMALEIMIDE 2]

>  <Selectivity>
158

$$$$
>  <Compound>
O=C1NC(=O)C(c2cn3c4c(cccc24)CNCC3)=C1c1cccc2c1OCO2

>  <Selectivity>
2

$$$$
>  <Compound>
O=C1NC(=O)C(c2cncc3ccoc23)=C1c1cn2c3c(cccc13)CN(C(=O)N1CCCCC1)CC2

>  <Selectivity>
92

$$$$
>  <Compound>
CC(C)C(=O)N1CCn2cc(C3=C(c4cnc5ccccn45)C(=O)NC3=O)c3cccc(c32)C1

>  <Selectivity>
2020

$$$$

Now, please, on to the next compound.
Q. // returns reported Selectivity for input `O=C1NC(=O)C(c2cn3c4c(cccc24)CNCC3)=C1c1cccc2occc12`
A. 1

----------
- Species on record: Homo sapiens
- Run Description: IC50 ratio between CDK4 and GSK-3
Outcome Measure: Selectivity
Keep the answer to the number alone.

Use these answered entries as a reference point.
>  <Structure String>
CC(=O)N1CCn2cc(C3=C(c4cccc5ccoc45)C(=O)NC3=O)c3cccc(c32)C1

>  <Selectivity>
25

$$$$
>  <Structure String>
O=C1NC(=O)C(c2cn3c4c(cccc24)CNCC3)=C1c1cccc2c1OCC2

>  <Selectivity>
7

$$$$
>  <Structure String>
O=C1NC(=O)C(c2cnc3ccccn23)=C1c1cn2c3c(cccc13)CN(C(=O)C1CCOCC1)CC2

>  <Selectivity>
2650

$$$$

Q. // returns reported Selectivity for input `CN(C)C(=O)N1CCn2cc(C3=C(c4cccc5ccoc45)C(=O)NC3=O)c3cccc(c32)C1`
A. 35

Q. Repeat with `O=C1NC(=O)C(c2cccc3ccsc23)=C1c1cn2c3c(cccc13)CNCC2`
A. 1

Q. Repeat with `O=C1NC(=O)C(c2cnc3ncccn23)=C1c1cn2c3c(cccc13)CNCC2`
A. 20

Q. Repeat with `CC(=O)N1CCn2cc(C3=C(c4cnc5ccccn45)C(=O)NC3=O)c3cccc(c32)C1`
A. 483

Q. Repeat with `CN(C)C(=O)N1CCn2cc(C3=C(c4cncc5ccoc45)C(=O)NC3=O)c3cccc(c32)C1`
A. 112

Q. Repeat with `CCC(=O)N1CCn2cc(C3=C(c4cncc5ccoc45)C(=O)NC3=O)c3cccc(c32)C1`
A. 98
